Measured On: T1, hen egg-white lysozyme (hen, UniProt P00698 19-147)
T1 construct: also called HEL
Assay Remarks: from Kd in solution: fluorescence titration of conjugate against competition Biacore of H4S(wt)
Assay Endpoint: ΔΔG (conjugate against H4S(wt))

Respectfully, I request ΔΔG (conjugate against H4S(wt)) for each entry included below.
1. H4S conjugate, IANBD fluorophore coupled at position Trp22 (designed binder, Cys at position 22 (H4S numbering) coupled to IANBD ester (ANBD)) MRGSHHHHHHGSVKVKFFWNGEEKEVDTSKIVCVKRAGKSVLFIYDDNGKNGYGDVTEKDAPKELLDMLARAEREKKLN
2. H4S conjugate, IANBD fluorophore coupled at position Asn40 (designed binder, Cys at position 40 (H4S numbering) coupled to IANBD ester (ANBD)) MRGSHHHHHHGSVKVKFFWNGEEKEVDTSKIVWVKRAGKSVLFIYDDNGKCGYGDVTEKDAPKELLDMLARAEREKKLN

**A:**
["≥ 1.5 kcal/mol", "≥ 1.5 kcal/mol"]

Provide each entry's ΔΔG (conjugate against H4S(wt)) from the list below.
1. H4S conjugate, IANBD fluorophore coupled at position Tyr42 (designed binder, Cys at position 42 (H4S numbering) coupled to IANBD ester (ANBD)) MRGSHHHHHHGSVKVKFFWNGEEKEVDTSKIVWVKRAGKSVLFIYDDNGKNGCGDVTEKDAPKELLDMLARAEREKKLN
2. H4S conjugate, IANBD fluorophore coupled at position Asn9 (designed binder, Cys at position 9 (H4S numbering) coupled to IANBD ester (ANBD)) MRGSHHHHHHGSVKVKFFWCGEEKEVDTSKIVWVKRAGKSVLFIYDDNGKNGYGDVTEKDAPKELLDMLARAEREKKLN
3. H4S conjugate, IANBD fluorophore coupled at position Asp44 (designed binder, Cys at position 44 (H4S numbering) coupled to IANBD ester (ANBD)) MRGSHHHHHHGSVKVKFFWNGEEKEVDTSKIVWVKRAGKSVLFIYDDNGKNGYGCVTEKDAPKELLDMLARAEREKKLN

**A:**
1. ≥ 1.5 kcal/mol
2. ≤ 0.5 kcal/mol
3. ≥ 1.5 kcal/mol
